test system: Leishmania amazonensis; experiment: Antileishmanial activity against Leishmania amazonensis PH8 amastigotes infected in mouse peritoneal macrophages after 48 hrs; format: functional, organism-based; conditions: PH8, 48 h
Would you kindly list IC50 for each of these compounds?
A number alone suffices; assume nM.

Q) Using the record for "Oc1ccc(CCc2cc(O)ccc2O)cc1" , report its IC50.
A) 1500

Q) Using the record for "N=C(N)c1ccc(OCCCCCOc2ccc(C(=N)N)cc2)cc1" , report its IC50.
A) 900

###

tested on: Trypanosoma cruzi; assay: Antitrypanosomal activity against Trypanosoma cruzi CL-B5 amastigotes infected in mouse NCTC-929 fibroblast after 7 days by colorimetric method; assay type: functional, organism-based; conditions: NCTC-929, 168 h
Would you kindly list IC50 for each of these molecules?
A number alone suffices; assume µM.

Q) Using the record for O=C(Cn1ccnc1[N+](=O)[O-])NCc1ccccc1 [BENZNIDAZOLE] , report its IC50.
A) 192

Q) Using the record for "Oc1ccc(CCc2cc(O)ccc2O)cc1" , report its IC50.
A) 17.3
